- Study target: Recombinant human liver GK1 (GST-GK) (Homo sapiens)
- Construct: made in house; host or cells: E. coli
- Test protocol: In vitro glucokinase activity assay (G6PDH-coupled, NADH, OD340)
- Assay type: biochemical
- Recorded conditions: concentration of activator that produced a 50% increase in the activity of GK; 5 mM D-glucose, 30° C.
Quantity kind: SC1.5 (µM)

>>> print(df.to_string())
                                   molecule  unit_text  value_measured
0  CS(=O)(=O)c1ccc([C@@H](CC2CCOCC2)c2cc3cccnc3[nH]2)cc1 (single isomer, unassigned)         µM           0.505
1  CS(=O)(=O)c1ccc(C(CC2CCCC2)c2cc3cc(C(F)(F)F)cnc3[nH]2)cc1 (stereo not shown)         µM             2.0
2  CC(O)c1cnc2[nH]c(C(CC3CCCC3)c3ccc(S(C)(=O)=O)cc3)cc2c1 (single isomer, unassigned)         µM            10.9
3  c1cncc(C(CC2CCCC2)c2cc3cccnc3[nH]2)c1 (stereo not shown)         µM            14.1

---

- Study target: Recombinant human liver GK1 (GST-GK) (Homo sapiens, UniProt P35557)
- Construct: made in house; host or cells: E. coli
- Test protocol: In vitro glucokinase activity assay (G6PDH-coupled, NADH, OD340)
- Format: biochemical
- Recorded conditions: concentration of activator that produced a 50% increase in the activity of GK; 5 mM D-glucose, 30° C.
Quick rule for you: SC1.5 at 2 µM or higher means t, lower means f.

>>> df
                                   compound  category
0  COCCOc1cnc2[nH]c(C(CC3CCCC3)c3ccc(S(C)(=O)=O)cc3)cc2c1 (stereo not shown)         f
1  CS(=O)(=O)c1ccc(C(CC2CCC(=O)C2)c2cc3cccnc3[nH]2)cc1 (single isomer, unassigned) [Example 78]         t
2  COC(=O)c1cnc2[nH]c([C@H](CC3CCCC3)c3ccc(S(C)(=O)=O)cc3)cc2c1 (single isomer, unassigned)         f
3  COCc1cnc2[nH]c([C@H](CC3CCCC3)c3ccc(S(C)(=O)=O)cc3)cc2c1 (single isomer, unassigned)         f
4  CS(=O)(=O)c1ccc(C(CC2CCCCO2)c2cc3cccnc3[nH]2)cc1 (single isomer, unassigned)         f
5  CS(=O)(=O)c1ccc(C(CC2CCCO2)c2cc3cccnc3[nH]2)cc1 (stereo not shown)         t
6  CC(C)CC(c1ccc(S(C)(=O)=O)cc1)c1cc2cc(C(=O)NC(C)C)cnc2[nH]1 (stereo not shown)         t

---

- Study target: Recombinant human liver GK1 (GST-GK) (Homo sapiens, UniProt P35557)
- Construct: made in house; host or cells: E. coli
- Sequence (P35557 1-466 isoform P35557-2): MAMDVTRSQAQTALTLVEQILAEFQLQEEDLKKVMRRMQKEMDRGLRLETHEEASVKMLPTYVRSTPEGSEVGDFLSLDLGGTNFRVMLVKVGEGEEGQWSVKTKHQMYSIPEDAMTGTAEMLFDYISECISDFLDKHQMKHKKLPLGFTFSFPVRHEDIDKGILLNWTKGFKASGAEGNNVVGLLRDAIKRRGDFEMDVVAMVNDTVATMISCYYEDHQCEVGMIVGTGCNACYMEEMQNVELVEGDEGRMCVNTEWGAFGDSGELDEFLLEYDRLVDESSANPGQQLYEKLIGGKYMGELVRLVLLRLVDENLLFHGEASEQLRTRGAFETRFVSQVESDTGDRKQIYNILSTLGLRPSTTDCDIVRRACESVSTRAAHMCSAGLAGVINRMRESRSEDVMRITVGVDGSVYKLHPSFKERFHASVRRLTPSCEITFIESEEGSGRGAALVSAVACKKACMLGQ
- Test protocol: In vitro glucokinase activity assay (G6PDH-coupled, NADH, OD340)
- Format: biochemical
- Recorded conditions: concentration of activator that produced a 50% increase in the activity of GK; 5 mM D-glucose, 30° C.
Quantity kind: SC1.5

>>> print(df.to_string())
                                   molecule  quantity_kind  value_measured
0  CS(=O)(=O)c1ccc(C(CC2CCC2)c2cc3cccnc3[nH]2)cc1C(F)(F)F (stereo not shown) [Example 77]          SC1.5        0.692 µM
1  CS(=O)(=O)c1ccc(C(O)(CC2CCCC2)c2cc3cc(F)cnc3[nH]2)cc1 (single isomer, unassigned) [Example 49]          SC1.5        0.354 µM
2  CC(C)C[C@H](c1ccc(S(C)(=O)=O)cc1)c1cc2cc(F)cnc2[nH]1 (single isomer, unassigned) [Example 100]          SC1.5        0.201 µM
3  CS(=O)(=O)c1ccc([C@@H](CC2CCCC2)c2cc3cc(C(F)(F)F)cnc3[nH]2)cc1 (single isomer, unassigned) [Example 127]          SC1.5        0.607 µM

Recorded values, source patent US8222416B2.
